# MEASURED_ON: 4H_GCN4
# Sequence (chain, as listed by the source): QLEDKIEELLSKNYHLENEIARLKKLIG
# METHOD_SUMMARY: two-hybrid library CCmax;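 also: natural log of median RNA to DNA barcode read ratio; higher means stronger binding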
Label fulfilled when interaction score is at or above -2; otherwise label not fulfilled.

Solved entries:
{"BINDER": "DKNAALKAKIAALKAEIAALEAEIAALEG [4H3905-AA]", "CLASS_LABEL": "fulfilled"}
{"BINDER": "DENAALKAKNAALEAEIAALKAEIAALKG [4H1930-AA]", "CLASS_LABEL": "fulfilled"}
{"BINDER": "DEIAALEAKIAALKAKNAALKAKNAALKG [4H384-AA]", "CLASS_LABEL": "not fulfilled"}
{"BINDER": "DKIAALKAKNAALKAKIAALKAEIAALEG [4H3049-AA]", "CLASS_LABEL": "fulfilled"}
{"BINDER": "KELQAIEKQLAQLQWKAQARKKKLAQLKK [4H_APH]", "CLASS_LABEL": "not fulfilled"}
{"BINDER": "DENAALKAKIAALEAKIAALEAENAALKG [4H1828-AA]", "CLASS_LABEL": "not fulfilled"}

Consider the record given below.
// inclusive: interaction score at least -2? input: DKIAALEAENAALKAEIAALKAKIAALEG [4H2253-AA]
fulfilled
